# Study Target: human GR (Homo sapiens)
# Sequence (P04150 whole entry): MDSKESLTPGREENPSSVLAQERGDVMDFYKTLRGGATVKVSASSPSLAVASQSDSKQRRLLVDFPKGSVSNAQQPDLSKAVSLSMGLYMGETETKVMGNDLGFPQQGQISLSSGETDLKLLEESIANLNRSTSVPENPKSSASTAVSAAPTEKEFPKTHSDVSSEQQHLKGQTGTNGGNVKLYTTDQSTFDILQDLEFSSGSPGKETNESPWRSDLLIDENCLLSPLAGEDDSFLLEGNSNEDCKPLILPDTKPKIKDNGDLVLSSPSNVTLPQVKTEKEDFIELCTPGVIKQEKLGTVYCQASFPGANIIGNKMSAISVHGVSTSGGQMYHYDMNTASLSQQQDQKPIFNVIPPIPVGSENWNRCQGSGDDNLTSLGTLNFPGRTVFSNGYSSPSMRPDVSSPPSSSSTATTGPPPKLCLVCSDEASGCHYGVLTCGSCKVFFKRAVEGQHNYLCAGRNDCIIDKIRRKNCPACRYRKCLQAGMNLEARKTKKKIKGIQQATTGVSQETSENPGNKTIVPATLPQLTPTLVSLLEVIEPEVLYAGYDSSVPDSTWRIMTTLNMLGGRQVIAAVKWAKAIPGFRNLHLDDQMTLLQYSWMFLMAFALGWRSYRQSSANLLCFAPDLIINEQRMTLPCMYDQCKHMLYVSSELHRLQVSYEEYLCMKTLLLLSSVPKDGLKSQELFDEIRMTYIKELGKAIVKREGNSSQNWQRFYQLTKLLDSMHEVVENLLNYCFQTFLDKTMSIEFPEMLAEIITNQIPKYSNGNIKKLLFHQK
# Assay Text: Trans-Activation Modulation of Glucocorticoid Receptor (GRAMMER), MMTV-LUC reporter, agonist mode
# Assay type: cell-based
# Design: endogenous in cells
# Experimental Parameters: A549 cells; inflection point; read-out: Transactivation A549 Cells GRAMMER IP
Endpoint Name: EC50 (µM)

Recorded results for 5 molecules are shown here.
[
  {
    "Molecule": "COC(=O)c1ccccc1S(=O)(=O)N(C[C@H]1CCC2=Cc3c(cnn3-c3ccc(F)cc3)C[C@@]21C)C[C@H](C)O",
    "Endpoint Name": "EC50",
    "Value Reported": 0.357
  },
  {
    "Molecule": "C[C@]12Cc3cnn(-c4ccc(F)cc4)c3C=C1CC[C@@H]2CN(CC1CCCO1)S(=O)(=O)c1ccc(C(N)=O)cc1 (stereo partly shown)",
    "Endpoint Name": "EC50",
    "Value Reported": 0.338
  },
  {
    "Molecule": "C[C@]12Cc3cnn(-c4ccc(F)cc4)c3C=C1CC[C@@H]2CN(CC(OS(=O)(=O)CC(F)(F)F)c1ccccn1)S(=O)(=O)CC(F)(F)F (stereo partly shown)",
    "Endpoint Name": "EC50",
    "Value Reported": 0.204
  },
  {
    "Molecule": "C[C@]12Cc3cnn(-c4ccc(F)cc4)c3C=C1CC[C@@H]2CN(CCc1ccccn1)S(=O)(=O)Cc1ccccn1",
    "Endpoint Name": "EC50",
    "Value Reported": 0.306
  },
  {
    "Molecule": "C[C@]12Cc3cnn(-c4ccc(F)cc4)c3C=C1CC[C@@H]2CN(CC#N)S(=O)(=O)c1cc(F)c(F)cc1F",
    "Endpoint Name": "EC50",
    "Value Reported": 0.635
  }
]

[A] C[C@]12Cc3cnn(-c4ccc(F)cc4)c3C=C1CC[C@@H]2CN(CCc1ccccc1F)S(=O)(=O)Cc1cccc(Cl)c1
[B] C[C@]12Cc3cnn(-c4ccc(F)cc4)c3C=C1CC[C@@H]2CN(CCc1ccccc1Cl)S(=O)(=O)c1ccccc1F
Recorded EC50 values differ for A and B ; which one is higher? # reply format: chosen label B

###

# Study Target: human GR (Homo sapiens)
# Assay Text: Transrepression Assay (GITAR), TNFα-β-lactamase reporter in U937 cells
# Format: cell-based
# Design: U937 cells contain an endogenous glucocorticoid receptor (GR); endogenous in cells; host or cells: U937 cells stably transfected with the TNF-alpha promoter/beta-lactamase reporter
# Experimental Parameters: U-937, U937 cells; maximum activity; read-out: Transrepression U937 Cells GITAR Emax
Endpoint Name: Emax (%)

Recorded results for 3 compounds are shown here.
[
  {
    "Compound": "CC([C@H]1CCC2=Cc3c(cnn3-c3ccc(F)cc3)C[C@@]21C)N(CCc1ccccn1)S(=O)(=O)Cc1cccnc1 (stereo partly shown) [Example 197]",
    "Display Unit": "%",
    "Emax": 45.5
  },
  {
    "Compound": "Cc1noc(C)c1S(=O)(=O)N(CC1CCCO1)C[C@H]1CCC2=Cc3c(cnn3-c3ccc(F)cc3)C[C@@]21C (stereo partly shown) [Example 170]",
    "Display Unit": "%",
    "Emax": 87.7
  },
  {
    "Compound": "C[C@@H](O)CN(C[C@H]1CCC2=Cc3c(cnn3-c3ccc(F)cc3)C[C@@]21C)S(=O)(=O)c1ccc(F)c(Cl)c1 [Example 115]",
    "Display Unit": "%",
    "Emax": 57.4
  }
]

[I] COC(=O)c1ccccc1CCN(C[C@H]1CCC2=Cc3c(cnn3-c3ccc(F)cc3)C[C@@]21C)S(=O)(=O)CC(F)(F)F [Example 159]
[II] C[C@]12Cc3cnn(-c4ccc(F)cc4)c3C=C1CC[C@@H]2CN(CCc1ccccc1F)S(=O)(=O)Cc1ccccc1Cl [Example 107]
[III] COC(=O)c1cc(Cl)ccc1CCN(C[C@H]1CCC2=Cc3c(cnn3-c3ccc(F)cc3)C[C@@]21C)S(=O)(=O)CC(F)(F)F [Example 160]
Task field, ranking: reported Emax, descending order. Return value: ordered labels per request. II, I, III

[A] C[C@]12Cc3cnn(-c4ccc(F)cc4)c3C=C1CC[C@@H]2CN(CC(OS(=O)(=O)CC(F)(F)F)C(F)F)S(=O)(=O)CC(F)(F)F (stereo partly shown) [Example 134]
[B] C[C@]12Cc3cnn(-c4ccc(F)cc4)c3C=C1CC[C@@H]2CN(CC#N)S(=O)(=O)c1ccccc1C(F)(F)F [Example 54]
Recorded Emax values differ for A and B ; which one is higher? # reply format: chosen label A

###

# Study Target: glucocorticoid receptor (Homo sapiens)
# Construct: endogenous in cells
# Assay Text: Ligand binding assay (GR BIND)
Endpoint Name: Ki (nM)

Recorded results for 4 compounds are shown here.
[
  {
    "Molecule Smiles": "C[C@]12Cc3cnn(-c4ccc(F)cc4)c3C=C1CC[C@@H]2CN(CCO)S(=O)(=O)c1ccccc1C(N)=O",
    "Ki [nM]": 9.4
  },
  {
    "Molecule Smiles": "Cc1noc(C)c1S(=O)(=O)N(CCCc1ccccc1)C[C@H]1CCC2=Cc3c(cnn3-c3ccc(F)cc3)C[C@@]21C",
    "Ki [nM]": 1.5
  },
  {
    "Molecule Smiles": "Cc1cc(S(=O)(=O)N(CCO)C[C@H]2CCC3=Cc4c(cnn4-c4ccc(F)cc4)C[C@@]32C)c(C)o1",
    "Ki [nM]": 7.9
  },
  {
    "Molecule Smiles": "C[C@]12Cc3cnn(-c4ccc(F)cc4)c3C=C1CC[C@@H]2CN(CCO)S(=O)(=O)c1ccc(F)c(F)c1",
    "Ki [nM]": 2.6
  }
]

[A] C[C@]12Cc3cnn(-c4ccc(F)cc4)c3C=C1CC[C@@H]2CN(CCO)S(=O)(=O)c1ccccc1Cl
[B] COCCN(C[C@H]1CCC2=Cc3c(cnn3-c3ccc(F)cc3)C[C@@]21C)S(=O)(=O)CC(F)(F)F
Please compare: A and B . Report which one has the smaller Ki value. # reply format: chosen label B
(B: 0.3 nM, A: 7.2 nM)

###

# Study Target: human GR (Homo sapiens)
# Assay Text: Trans-Activation Modulation of Glucocorticoid Receptor (GRAMMER), MMTV-LUC reporter, agonist mode
# Format: cell-based
# Parameters: endogenous in cells
# Experimental Parameters: A549, A549 cells; maximum activity; read-out: Transactivation A549 Cells GRAMMER Emax
Endpoint Name: Emax (%)

Recorded results for 3 molecules are shown here.
[
  {
    "Molecule": "CC([C@H]1CCC2=Cc3c(cnn3-c3ccc(F)cc3)C[C@@]21C)N(CCc1ccccn1)S(=O)(=O)Cc1cccnc1 (stereo partly drawn) [Example 197]",
    "Study Target": "human GR (Homo sapiens)",
    "Emax, %": 43.7
  },
  {
    "Molecule": "CCCS(=O)(=O)N(CC(O)C(F)F)C[C@H]1CCC2=Cc3c(cnn3-c3ccc(F)cc3)C[C@@]21C (stereo partly drawn) [Example 155]",
    "Study Target": "human GR (Homo sapiens)",
    "Emax, %": 29
  },
  {
    "Molecule": "Cc1nn(C)c(Cl)c1S(=O)(=O)N(CC1CC1)C[C@H]1CCC2=Cc3c(cnn3-c3ccc(F)cc3)C[C@@]21C [Example 7]",
    "Study Target": "human GR (Homo sapiens)",
    "Emax, %": 36.3
  }
]

[I] C[C@]12Cc3cnn(-c4ccc(F)cc4)c3C=C1CC[C@@H]2CN(CCc1ccccc1F)S(=O)(=O)C1CC1 [Example 101]
[II] COC(=O)c1ccccc1CCN(C[C@H]1CCC2=Cc3c(cnn3-c3ccc(F)cc3)C[C@@]21C)S(=O)(=O)CC(F)(F)F [Example 159]
Recorded Emax values differ for I and II ; which one is higher? # reply format: chosen label I
(I: 62.8%, II: 28.9%)

[a] C[C@]12Cc3cnn(-c4ccc(F)cc4)c3C=C1CC[C@@H]2CN(CCc1ccccc1O)S(=O)(=O)c1ccccc1F [Example 116]
[b] C[C@]12Cc3cnn(-c4ccc(F)cc4)c3C=C1CC[C@@H]2CN(CC(O)C(F)F)S(=O)(=O)Cc1cccnc1 (stereo partly drawn) [Example 154]
Recorded Emax values differ for a and b ; which one is higher? # reply format: chosen label a
(a: 73.5%, b: 17.9%)

[I] Cc1noc(C)c1S(=O)(=O)N(CC1CCCO1)C[C@H]1CCC2=Cc3c(cnn3-c3ccc(F)cc3)C[C@@]21C (stereo partly drawn) [Example 170]
[II] CC(C1CCC2=Cc3c(cnn3-c3ccc(F)cc3)C[C@@]21C)N(CCc1ccccc1F)S(=O)(=O)CC(F)(F)F (stereo partly drawn) [Example 93]
Please compare: I and II . Report which one has the smaller Emax value. # reply format: chosen label II

[1] Cn1cc(S(=O)(=O)N(CCO)C[C@H]2CCC3=Cc4c(cnn4-c4ccc(F)cc4)C[C@@]32C)c(C(F)(F)F)n1 [Example 65]
[2] C[C@]12Cc3cnn(-c4ccc(F)cc4)c3C=C1CC[C@@H]2CN(CC1CC1)S(=O)(=O)c1ccc(-c2ccccc2)cc1 [Example 10]
Please compare: 1 and 2 . Report which one has the smaller Emax value. # reply format: chosen label 2
(2: 12.3%, 1: 19.6%)

[1] COCCN(C[C@H]1CCC2=Cc3c(cnn3-c3ccc(F)cc3)C[C@@]21C)S(=O)(=O)CC(F)(F)F [Example 97]
[2] CNC(=O)Nc1ccc(S(=O)(=O)N(CCO)C[C@H]2CCC3=Cc4c(cnn4-c4ccc(F)cc4)C[C@@]32C)c(Cl)c1 [Example 76]
[3] C[C@]12Cc3cnn(-c4ccc(F)cc4)c3C=C1CC[C@@H]2CN(CCO)S(=O)(=O)c1cc(C(F)(F)F)ccc1Cl [Example 80]
[4] COC(=O)c1ccccc1S(=O)(=O)N(C[C@H]1CCC2=Cc3c(cnn3-c3ccc(F)cc3)C[C@@]21C)C[C@@H](C)O [Example 186]
Task field, ranking: reported Emax, descending order. Return value: ordered labels per request. 1, 4, 3, 2
